Entries and their measured Activity follow.
Tested on: Protocadherin-15 (Homo sapiens), Q96QU1 [R3X]
Assay comment: Effect on human PCDH15 R3X mutation translation level at 80 ug/ml
Readout name: Activity (%)

>  <Compound>
N[C@H]1[C@@H](O[C@H]2[C@H](O[C@@H]3O[C@H](CO)[C@@H](O)[C@H]3O)[C@@H](O)[C@H](N)C[C@@H]2N)O[C@H](CO)[C@@H](O)[C@@H]1O.O=S(=O)(O)O

>  <Readout name>
Activity

>  <Result units>
%

>  <Measured>
100

$$$$
>  <Compound>
N[C@H]1[C@@H](O[C@H]2[C@H](O)[C@@H](O)[C@H](N)C[C@@H]2N)O[C@H](CO)[C@@H](O)[C@@H]1O.O=S(=O)(O)O [PAROMAMINE SULFATE]

>  <Readout name>
Activity

>  <Result units>
%

>  <Measured>
74

$$$$
>  <Compound>
NC[C@@H]1O[C@H](O[C@H]2[C@@H](O)[C@H](O[C@@H]3[C@@H](O)[C@H](N)C[C@H](N)[C@H]3O[C@H]3O[C@H](CO)[C@@H](O)[C@H](O)[C@H]3N)O[C@@H]2CO)[C@H](N)[C@@H](O)[C@@H]1O.O=S(=O)(O)O [PAROMOMYCIN SULFATE]

>  <Readout name>
Activity

>  <Result units>
%

>  <Measured>
74

$$$$
>  <Compound>
NC[C@H]1O[C@@H](O[C@@H]2[C@@H](N)[C@@H](O[C@H]3[C@H](O)[C@@H](O)[C@H](N)C[C@@H]3N)O[C@H](CO)[C@H]2O)[C@H](O)[C@@H]1O.O=S(=O)(O)O

>  <Readout name>
Activity

>  <Result units>
%

>  <Measured>
98

$$$$
>  <Compound>
N[C@H]1[C@@H](O[C@H]2[C@H](O)[C@@H](O[C@H]3O[C@@H](CO)[C@H](O)[C@@H]3O)[C@H](N)C[C@@H]2N)O[C@H](CO)[C@@H](O)[C@@H]1O.O=S(=O)(O)O

>  <Readout name>
Activity

>  <Result units>
%

>  <Measured>
74

$$$$

Data provenance is ChEMBL document CHEMBL1146146.
